Each record here notes measured cell viability.
system: Calu-3; test: cell viability relative to DMSO; higher = less toxic; conditions: 72 h; 1 nM
# value in %; strip the unit string

C=C1CC[C@H](O)C/C1=C/C=C1\CCC[C@]2(C)[C@@H]([C@H](C)CCCC(C)C)CC[C@@H]12 [cholecalciferol]
100
Cc1ccc2c(c1)[C@H]1CN(C)CC[C@H]1N2 [stobadine]
97.2
CCCCOC(=O)c1cc2c(cn1)[nH]c1ccccc12 [beta-CCB]
92.2
O=C(NC1CCN(CCc2c[nH]c3ccccc23)CC1)c1ccccc1 [indoramin]
90.4
CN(C)CC/C=C1/c2ccccc2COc2ccccc21 [doxepin]
89

Input N[C@@H](CCNCc1ccc(Cl)cc1)C(=O)N1CCCCC1 . Output cell viability: 108

So for CC(C)[C@@H]1C(=O)N(S(C)(=O)=O)[C@@H]2CCN(C(=O)/C=C/CN3CCCCC3)[C@H]21 , the logged cell viability turned out to be 95.9

The compound listed as CN1C(C(=O)Nc2ccccn2)=C(O)c2sc(Cl)cc2S1(=O)=O [lornoxicam] shows cell viability equal to 95.3

The recorded cell viability for Cc1cccc(C)c1NC1=NCCCS1 [xylazine] is 94.4

compound CN1CCc2nc(C(=O)N[C@@H]3C[C@@H](C(=O)N(C)C)CC[C@@H]3NC(=O)C(=O)Nc3ccc(Cl)cn3)sc2C1 [edoxaban] , cell viability observed: 97.6

* * *

test system: Calu-3; assay: cell viability relative to DMSO; higher = less toxic; settings: 72 h; 10 nM
Recorded Metric: cell viability (%)
// units = %; emit number, no label

Cc1ccc(O)c(N=Nc2ccccc2)n1 [SIB-1757]
107

Tested system Calu-3; cell viability recorded for CC(C)(C)c1cc(NC(=O)Nc2ccc(-c3cn4c(n3)sc3cc(OCCN5CCOCC5)ccc34)cc2)no1 [quizartinib] was 97.3

Test item Cc1cnc(-c2ccccc2C(C)C)nc1NCc1ccc(-n2ccnn2)cc1 [ML323] ; Calu-3; reported cell viability was 108

With Calu-3 as the test system, NC(=O)N1c2ccccc2CC(O)c2ccccc21 (stereo not drawn) [licarbazepine] showed cell viability of 99.9

Item: CCCCCCCCCCCCC/C=C/[C@@H](O)[C@@H](N)CO[P@](=O)(O)OCC[N+](C)(C)C [sphingosylphosphorylcholine] | System: Calu-3 | cell viability: 106

Case Oc1ccc2[nH]cc(C3=CCNCC3)c2n1 , Calu-3, cell viability recorded as 92.6

* * *

tested on: Caco-2; test: cell viability relative to DMSO; higher = less toxic; details: 72 h; 100 nM
This listing pairs compounds with measured cell viability.
Use % as the unit, but write only the number.

For orientation, consider the following solved cases.
O=C(O)c1ccccc1Nc1cccc(C(F)(F)F)c1 [flufenamic-acid]
85.4
FCc1ccc(OCCOc2ccc(Cl)cc2Cl)c(Cl)n1
107
Oc1c(I)cc(I)c2cccnc12 [iodoquinol]
97.1

Lab book: cell viability of CN(C)Cc1cccc(N/C(=C2\C(=O)Nc3cc(C(N)=O)ccc32)c2ccccc2)c1 noted as 100

compound COC1(C[S@@+]([O-])c2ccccc2)CCN(CCc2c[nH]c3ccc(F)cc23)CC1 , cell viability observed: 87.1

Briefly, cell viability measured for O=C(NCc1ccccc1)OCCO [buramate] : 89.9

The compound Cc1ccc2nc(NCCN)c3ncc(C)n3c2c1 showed cell viability equal to 95.8

Briefly, cell viability measured for COc1cc2c(cc1OC)C(=O)C(CC1CCN(Cc3ccccc3)CC1)C2 (stereo not given) [donepezil] : 104

For record Cc1ncc(CSSCc2cnc(C)c(O)c2CO)c(CO)c1O [pyritinol] the listed cell viability is 94.5

// Cc1cccc(C)c1NC1=NCCCS1 [xylazine] : cell viability value = 98.7

* * *

test system: Vero E6; test: relative viability EC50 (midpoint between 100% and the lowest measured viability); higher = less toxic; settings: 72 h
Recorded Metric: relative viability EC50

Recorded results for 3 compounds are shown here.
O=C1c2cccnc2OC[C@@H]2CCCN12
> 10 µM
Nc1ncnc2c1ncn2[C@H]1CC[C@@H](CO)O1 [dideoxyadenosine]
> 10 µM
c1cc(OCCN2CCCCC2)cc(-c2n[nH]c3ccc(-c4nnc[nH]4)cc23)c1 [CC-401]
> 10 µM

The reported Vero E6 relative viability EC50 of O=C(Nc1cnccc1Cl)N1CCN(Cc2ccc3c(c2)OC(F)(F)O3)CC1 is > 10 µM

For Oc1ccc2[nH]cc(C3=CCNCC3)c2n1 on Vero E6, measured relative viability EC50 was > 10 µM

Log: Vero E6, compound COc1ccc2nc3ccc(Cl)cc3c(SCCCN)c2c1 , relative viability EC50 = > 10 µM

* * *

system: A549-ACE2 infected with SARS-CoV-2; experiment: SARS-CoV-2 infection rate relative to DMSO; higher = more infection; details: 3 µM; 24 h
We use 90% as the dividing line for SARS-CoV-2 infection rate: on or above the line is rule met, below is rule not met.

Sample answers from the record:
CCCOC(C(=O)OC1CCN(C)CC1)(c1ccccc1)c1ccccc1
rule not met
O=Nc1ccc(O)c2ncccc12
rule met
OCCN1C[C@H](O)[C@@H](O)[C@H](O)[C@H]1CO
rule met
CCN(CC)CCOc1ccc(/C(=C(\Cl)c2ccccc2)c2ccccc2)cc1
rule not met

Shifting focus to the compound that follows.
Determine whether measured SARS-CoV-2 infection rate meets or exceeds 90% for COc1cc(/C=C/C(=O)CC(=O)/C=C/c2ccc(O)c(OC)c2)ccc1O
rule met

* * *

system: U2OS; assay: cell viability relative to DMSO; higher = less toxic; conditions: 72 h; 100 nM
Recorded Metric: cell viability (%)
The answer is to be given in %; state only the numeric part.

Previously resolved entries follow.
COc1cc2nccc(Oc3ccc(NC(=O)Nc4ccc(F)cc4F)c(F)c3)c2cc1OC
99.2
CCCC[C@H](NC(C)=O)C(=O)N[C@H]1CC(=O)NCCCC[C@@H](C(=O)O)NC(=O)[C@H](Cc2c[nH]c3ccccc23)NC(=O)[C@H](CCCNC(=N)N)NC(=O)[C@@H](Cc2ccccc2)NC(=O)[C@H](Cc2c[nH]cn2)NC1=O [bremelanotide]
95
O=S1(=O)CCN(CN2CCS(=O)(=O)NC2)CN1
95.8
FCc1ccc(OCCOc2ccc(Cl)cc2Cl)c(Cl)n1
102
CCCCNc1ncc(-c2ccc(CN3CCOCC3)cn2)c(N[C@H]2CC[C@H](O)CC2)n1
99.9

Here CC(=O)[C@@]1(O)CC[C@H]2[C@@H]3C[C@H](C)C4=CC(=O)CC[C@]4(C)[C@H]3CC[C@@]21C was tested on U2OS, and its cell viability came to 97.5

Reported cell viability (U2OS) for entry CC(C)C[C@H](NC(=O)[C@H](CCc1ccccc1)NC(=O)CN1CCOCC1)C(=O)N[C@@H](Cc1ccccc1)C(=O)N[C@@H](CC(C)C)C(=O)[C@@]1(C)CO1 is 0.4

* * *

test system: U2OS; assay: cell viability relative to DMSO; higher = less toxic; settings: 72 h; 100 nM
cell viability overview
Your answer is read as %, so omit the unit and give the number.

Please review the entries below; each comes with its answer.
O=C(Nc1ccccc1)c1ccccc1O [salicylanilide]
97.1
CCCOC(C(=O)OC1CCN(C)CC1)(c1ccccc1)c1ccccc1
99.5
Nc1ccc(F)cc1NC(=O)c1ccc(CNC(=O)/C=C/c2cccnc2)cc1 [chidamide]
104
Nc1nc(=O)[nH]cc1F
102
CC(C)[C@@H]1CC[C@@H](C)C[C@@H]1P(=O)(c1ccccc1)c1ccccc1
97.3
N[C@@H](Cc1ccc(Cl)cc1)C(=O)O (racemic) [fenclonine-(+/-)]
96.4
CC(C)(C)[C@]1(O)CC2OC(=O)CC23C(=O)OC2OC(=O)[C@H](O)C231 (stereo partly drawn) [bilobalide]
94
C[C@@H](O)[C@H]1C(=O)N2C(C(=O)[O-])=C(SC3Cn4cnc[n+]4C3)[C@H](C)[C@H]12 (stereo partly drawn)
96.3

The reported cell viability of the molecule O=C1CN(/N=C/c2ccc([N+](=O)[O-])o2)C(=O)N1 was 101

Notebook: CCCCCCCC/C=C\CCCCCCCC(=O)NCCc1ccc(O)c(O)c1 , cell viability read as 98.3

Sample CC(=C(CCOC(=O)C(C)C)SSC(CCOC(=O)C(C)C)=C(C)N(C=O)Cc1cnc(C)nc1N)N(C=O)Cc1cnc(C)nc1N (stereo in doubt) ; cell viability observed: 105

Notebook: c1ccc(-c2nn3c(c2-c2ccnc4cc(OCCN5CCOCC5)ccc24)CCC3)nc1 , cell viability read as 91.6

Given item N[C@H](Cc1c[nH]cn1)C(=O)O , the value recorded as its cell viability is 95.8

Entry Cc1ccc2c(c1)[C@H]1CN(C)CC[C@H]1N2 ; cell viability = 101

In plain terms, CC(C)[C@@H]1C(=O)N(S(C)(=O)=O)[C@@H]2CCN(C(=O)/C=C/CN3CCCCC3)[C@H]21 has a documented cell viability of 103

For this molecule ( COC(=O)C1=CO[C@@H](O)[C@@H]2C(CO)=CC[C@H]12 ), measured cell viability is 99.7

Per the record, CCCN1CCC[C@@H]2Cc3n[nH]cc3C[C@H]21 [quinpirol-(-)] has cell viability of 94.9

Note to self: cell viability recorded for COc1ccc(-n2c(SCc3nc(-c4ccc(C)cc4)no3)nnc2-c2ccncc2)cc1 was 97
